Molecular target: T1, 4H341-AA
T1 chain: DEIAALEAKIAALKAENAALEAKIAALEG
Experiment: two-hybrid library CCmax;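 also: natural log of median RNA to DNA barcode read ratio; higher means stronger binding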
Settings: mean of both orientations
measurement_name: interaction score
# print the numeric value only

# example entries with known answers
INSERT INTO results (binder, reported_measurement) VALUES
  ('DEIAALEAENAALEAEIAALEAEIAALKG [4H130-AA]', 0.154),
  ('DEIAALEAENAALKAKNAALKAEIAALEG [4H249-AA]', 0.538),
  ('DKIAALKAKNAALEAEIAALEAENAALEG [4H2947-AA]', -1.12);

Complete the entry with interaction score for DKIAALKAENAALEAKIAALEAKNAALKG [4H2728-AA]
-0.899
